Data origin, for the record: PubChem BioAssay AID1963959

tested on: T-47D spheroids with HUVEC/MSC, viability; assay: Anticancer human tumor T-47D cell line growth inhibition [PI3K]; conditions: curve of first compound; second compound 0.1 µM;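 also: spheroids exposed to agents for seven days before reading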
The compounds listed here are annotated with their IC50.
measuredAttribute: IC50

compound: C[C@@H](NC(=O)c1ncnc(N)c1Cl)c1ncc(C(=O)Nc2cc(C(F)(F)F)c(Cl)cn2)s1 + Cc1nc(NC(=O)N2CCCC2C(N)=O)sc1-c1ccnc(C(C)(C)C(F)(F)F)c1
assayTarget: T-47D spheroids with HUVEC/MSC, viability
measuredAttribute: IC50
measuredValue: > 10 µM

compound: CC(C)n1nc(-c2ccc3oc(N)nc3c2)c2c(N)ncnc21 + Cc1nc(NC(=O)N2CCCC2C(N)=O)sc1-c1ccnc(C(C)(C)C(F)(F)F)c1
assayTarget: T-47D spheroids with HUVEC/MSC, viability
measuredAttribute: IC50
measuredValue: 0.0608 µM

compound: CCCS(=O)(=O)Nc1ccc(F)c(C(=O)c2c[nH]c3ncc(-c4ccc(Cl)cc4)cc23)c1F + CC(Nc1ccc2c(c1)OCCn1cc(N3C(=O)OCC3C(F)F)nc1-2)C(N)=O
assayTarget: T-47D spheroids with HUVEC/MSC, viability
measuredAttribute: IC50
measuredValue: 6.95 µM

compound: C=CC(=O)N1CCN(c2nc(=O)n(-c3c(C)ccnc3C(C)C)c3nc(-c4c(O)cccc4F)c(F)cc23)C(C)C1 (stereo unspecified) + COc1c(OCCCN2CCOCC2)ccc2c3n(c(=NC(=O)c4cnc(N)nc4)nc12)CCN3
assayTarget: T-47D spheroids with HUVEC/MSC, viability
measuredAttribute: IC50
measuredValue: < 0.0316 µM

compound: C=CC(=O)N1CCN(c2nc(=O)n(-c3c(C)ccnc3C(C)C)c3nc(-c4c(O)cccc4F)c(F)cc23)C(C)C1 (stereo unspecified) + CC(Nc1ncnc2nc[nH]c12)c1cc2cccc(Cl)c2c(=O)n1-c1ccccc1
assayTarget: T-47D spheroids with HUVEC/MSC, viability
measuredAttribute: IC50
measuredValue: > 10 µM

compound: CC1(C)CCC(CN2CCN(c3ccc(C(=O)NS(=O)(=O)c4ccc(NCC5CCOCC5)c([N+](=O)[O-])c4)c(Oc4cnc5[nH]ccc5c4)c3)CC2)=C(c2ccc(Cl)cc2)C1 + CC(Nc1ccc2c(c1)OCCn1cc(N3C(=O)OCC3C(F)F)nc1-2)C(N)=O
assayTarget: T-47D spheroids with HUVEC/MSC, viability
measuredAttribute: IC50
measuredValue: > 10 µM
